assaySystem: T1, his-tagged ROR2 extracellular domain (ROR2-ECD, G&P Biosciences, cat. no. FCL0192) (human, UniProt Q01974 34-403)
T1 construct: Bought protein; also called human ROR2-ECD; recombinant human ROR2-ECD; not shown: his tag
T1 sequence (Q01974 34-403): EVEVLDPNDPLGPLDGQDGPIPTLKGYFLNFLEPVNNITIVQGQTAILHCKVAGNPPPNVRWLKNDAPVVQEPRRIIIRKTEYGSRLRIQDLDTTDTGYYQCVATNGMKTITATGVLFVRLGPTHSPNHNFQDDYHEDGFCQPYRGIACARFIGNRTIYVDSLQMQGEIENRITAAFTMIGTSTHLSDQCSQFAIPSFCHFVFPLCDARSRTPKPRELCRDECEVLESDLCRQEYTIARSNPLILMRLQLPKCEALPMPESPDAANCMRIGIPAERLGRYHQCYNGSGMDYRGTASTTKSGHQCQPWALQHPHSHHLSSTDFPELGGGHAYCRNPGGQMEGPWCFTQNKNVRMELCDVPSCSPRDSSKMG
protocolText: BLI (Octet), antibody on anti-human IgG Fc sensor, ROR2-ECD 1.56-100 nM as analyte
measureName: Kd (nM)

# binder, value
data = [
    ("IgG1-ROR2-A-HC3LC1-FEAR (antibody, V domains shown, Humanized variant) VH: EVQLLESGGGLVQPGGSLRLSCTVSGFSLSSYSMSWVRQAPGKGLEWIGVIYVNSKTWYANWAKGRFTISKTSTTVYLQMNSLRAEDTATYYCARGDAGYTTNSWLWGQGTLVTVSS VL: AFELTQSPSSLSASVGDRVTITCQASESIDNYCSWYQQKPGKAPKLLIYQAFKLASGVPSRFRGSGSGTDFTLTISSLQSEDFATYYCQSYSGISTTAFGGGTEVVIK", 1.6),
    ("IgG1-ROR2-A-HC7LC1-FEAR (antibody, V domains shown, Humanized variant) VH: EVQLLESGGGLVQPGGSLRLSCAASGFSLSSYSMSWVRQAPGKGLEWIGVIYVNSKTWYADSVKGRFTISKDNSKNTVYLQMNSLRAEDTATYYCARGDAGYTTNSWLWGQGTLVTVSS VL: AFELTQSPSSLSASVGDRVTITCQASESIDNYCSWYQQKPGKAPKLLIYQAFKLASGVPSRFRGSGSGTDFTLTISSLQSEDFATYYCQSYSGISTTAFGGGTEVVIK", 3.8),
]
